# TARGET_UNDER_TEST: T1, monovalent human Trop2-ECD antigen (human, UniProt P09758 27-274)
# T1 construct: also called human Trop2-ECD (Extracellular Domain)
# T1 sequence: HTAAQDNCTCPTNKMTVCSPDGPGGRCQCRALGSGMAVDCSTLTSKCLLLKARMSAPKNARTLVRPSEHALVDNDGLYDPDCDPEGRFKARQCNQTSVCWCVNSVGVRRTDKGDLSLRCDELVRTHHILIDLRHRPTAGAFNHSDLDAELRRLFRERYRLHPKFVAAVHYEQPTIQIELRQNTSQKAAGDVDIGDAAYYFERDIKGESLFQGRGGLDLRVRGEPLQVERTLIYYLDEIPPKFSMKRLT
# PROCEDURE_TEXT: SPR (ProteOn XPR36), amine-coupled Fab, monovalent human Trop2-ECD as analyte, 25 C;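 further: GLC sensor chip, 3 min association then 15 min buffer dissociation, kinetics fit with a 1:1 Langmuir model, buffer of 10 mM sodium phosphate with 150 mM NaCl and 0.05% Tween-20 at pH 7.4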
READOUT_TYPE: koff

binder="h7E6_SVG Fab (Fab, V domains shown, also called DG (h7E6_SVG)) VH: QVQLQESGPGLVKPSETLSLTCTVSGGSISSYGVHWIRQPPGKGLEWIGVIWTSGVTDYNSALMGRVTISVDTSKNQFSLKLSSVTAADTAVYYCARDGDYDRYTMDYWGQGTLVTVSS VL: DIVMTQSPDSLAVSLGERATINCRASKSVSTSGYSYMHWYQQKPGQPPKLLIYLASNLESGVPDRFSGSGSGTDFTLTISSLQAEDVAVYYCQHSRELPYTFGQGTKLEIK" experimental_result="0.00069 s⁻¹"
binder="h7E6_SVG30 Fab (Fab, V domains shown, also called DE (h7E6_SVG30)) VH: QVQLQESGPGLVKPSETLSLTCTVSGGSISSYGVHWIRQPPGKGLEWIGVIWTSGVTDYNSALMGRVTISVDTSKNQFSLKLSSVTAADTAVYYCARDEDYDRYTMDYWGQGTLVTVSS VL: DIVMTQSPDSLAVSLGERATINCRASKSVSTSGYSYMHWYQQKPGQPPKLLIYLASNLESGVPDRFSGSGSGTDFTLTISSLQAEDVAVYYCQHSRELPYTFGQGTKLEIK" experimental_result="0.064 s⁻¹"

Return reported koff. Input binder: h7E6_SVG22 Fab (Fab, V domains shown, also called DA (h7E6_SVG22)) VH: QVQLQESGPGLVKPSETLSLTCTVSGGSISSYGVHWIRQPPGKGLEWIGVIWTSGVTDYNSALMGRVTISVDTSKNQFSLKLSSVTAADTAVYYCARDADYDRYTMDYWGQGTLVTVSS VL: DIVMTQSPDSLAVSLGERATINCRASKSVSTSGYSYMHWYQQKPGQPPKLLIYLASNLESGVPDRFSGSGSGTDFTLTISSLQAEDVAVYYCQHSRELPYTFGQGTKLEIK
0.013 s⁻¹
